- Study System: UniProt:P30291
- Sequence (P30291 whole entry): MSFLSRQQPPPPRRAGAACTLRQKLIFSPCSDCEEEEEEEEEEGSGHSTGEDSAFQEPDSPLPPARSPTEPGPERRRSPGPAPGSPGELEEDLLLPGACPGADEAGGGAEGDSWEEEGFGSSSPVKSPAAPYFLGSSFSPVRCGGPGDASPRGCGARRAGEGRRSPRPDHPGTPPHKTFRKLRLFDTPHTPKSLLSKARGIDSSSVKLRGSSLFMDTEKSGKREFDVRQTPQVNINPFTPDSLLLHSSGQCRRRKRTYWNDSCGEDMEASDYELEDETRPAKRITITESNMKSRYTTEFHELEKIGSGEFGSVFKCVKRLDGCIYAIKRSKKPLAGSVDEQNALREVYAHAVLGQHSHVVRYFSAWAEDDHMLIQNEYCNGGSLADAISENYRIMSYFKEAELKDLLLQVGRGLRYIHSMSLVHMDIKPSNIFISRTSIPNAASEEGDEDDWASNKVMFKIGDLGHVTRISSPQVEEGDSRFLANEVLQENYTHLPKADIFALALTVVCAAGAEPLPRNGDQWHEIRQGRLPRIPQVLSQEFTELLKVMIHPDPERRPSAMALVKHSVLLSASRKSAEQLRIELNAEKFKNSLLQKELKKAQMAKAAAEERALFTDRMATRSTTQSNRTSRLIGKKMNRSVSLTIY
- Assay Info: Wee1 kinase (h) detection method, [γ-33P]-ATP filter assay
- Type: biochemical
- Experimental Context: C 1 μm compound
Label label 1 when Inh. (%) of Wee1 kinase enzyme activity is at or above 90%; otherwise label label 0.

Request: Test whether the compound O=C1c2cnc(Nc3ccc(N4CCNCC4)cc3)nc2N2CCN=C2N1c1c(Cl)cccc1Cl records Inh. (%) of Wee1 kinase enzyme activity of 90% or higher.
Result: label 1

Request: Test whether the compound COc1cc(Nc2ncc3c(n2)N2CCN=C2N(c2c(Cl)cccc2Cl)C3=O)cc(F)c1N1CCN(C)CC1 records Inh. (%) of Wee1 kinase enzyme activity of 90% or higher.
Result: label 1

Request: Test whether the compound CN1CCN(c2ccc(Nc3ncc4c(n3)N3CCN=C3N(c3c(F)cccc3Cl)C4=O)c(F)c2)CC1 records Inh. (%) of Wee1 kinase enzyme activity of 90% or higher.
Result: label 0

Request: Test whether the compound O=C1c2cnc(Nc3ccc(N4CCNCC4)c(CO)c3)nc2N2CCN=C2N1c1c(Cl)cccc1Cl records Inh. (%) of Wee1 kinase enzyme activity of 90% or higher.
Result: label 1

Request: Test whether the compound C[C@@H]1CN(c2ccc(Nc3ncc4c(n3)N3CCN=C3N(c3c(F)cccc3Cl)C4=O)c(F)c2)C[C@H](C)N1C records Inh. (%) of Wee1 kinase enzyme activity of 90% or higher.
Result: label 0

Request: Test whether the compound CN1CCN(c2ccc(Nc3ncc4c(n3)N3CCN=C3N(C3CCC3)C4=O)cc2)CC1 records Inh. (%) of Wee1 kinase enzyme activity of 90% or higher.
Result: label 0

Request: Test whether the compound CN(C)CCOc1ccc(Nc2ncc3c(n2)N2CCN=C2N(c2c(F)cccc2Cl)C3=O)cc1 records Inh. (%) of Wee1 kinase enzyme activity of 90% or higher.
Result: label 1

Request: Test whether the compound CN1CCN(c2c(F)cc(Nc3ncc4c(n3)N3CCN=C3N(c3c(Cl)cccc3Cl)C4=O)cc2Cl)CC1 records Inh. (%) of Wee1 kinase enzyme activity of 90% or higher.
Result: label 1

Request: Test whether the compound CN(C)CCCOc1ccc(Nc2ncc3c(n2)N2CCN=C2N(c2c(F)cccc2Cl)C3=O)cc1 records Inh. (%) of Wee1 kinase enzyme activity of 90% or higher.
Result: label 1

Request: Test whether the compound COc1cccc(Cl)c1N1C(=O)c2cnc(Nc3ccc(N4CCN(C)CC4)c(C)c3)nc2N2CCN=C21 records Inh. (%) of Wee1 kinase enzyme activity of 90% or higher.
Result: label 0

Request: Test whether the compound CN1Cc2cc(Nc3ncc4c(n3)N3CCN=C3N(c3c(F)cccc3Cl)C4=O)ccc2C(C)(C)C1 records Inh. (%) of Wee1 kinase enzyme activity of 90% or higher.
Result: label 1

Request: Test whether the compound C[C@@H]1CN(c2ccc(Nc3ncc4c(n3)N3CCN=C3N(c3c(Cl)cccc3Cl)C4=O)cc2)C[C@H](C)N1C records Inh. (%) of Wee1 kinase enzyme activity of 90% or higher.
Result: label 1

Request: Test whether the compound CC(C)N1Cc2cc(Nc3ncc4c(n3)N3CCN=C3N(c3c(F)cccc3Cl)C4=O)ccc2C2(CC2)C1 records Inh. (%) of Wee1 kinase enzyme activity of 90% or higher.
Result: label 1

Request: Test whether the compound Cc1cc(Nc2ncc3c(n2)N2CCN=C2N(c2c(Cl)cccc2Br)C3=O)cc(Cl)c1N1CCN(C)CC1 records Inh. (%) of Wee1 kinase enzyme activity of 90% or higher.
Result: label 1

Request: Test whether the compound COc1cc(Nc2ncc3c(n2)N2CCN=C2N(c2c(Cl)cccc2Cl)C3=O)cc(Cl)c1N1CCN(C)CC1 records Inh. (%) of Wee1 kinase enzyme activity of 90% or higher.
Result: label 1

Request: Test whether the compound CN1CCN(c2ccc(Nc3ncc4c(n3)N3CCN=C3N(c3ccncc3)C4=O)cc2)CC1 records Inh. (%) of Wee1 kinase enzyme activity of 90% or higher.
Result: label 0

Request: Test whether the compound COc1cc(Nc2ncc3c(n2)N2CCN=C2N(c2c(Cl)cccc2Cl)C3=O)ccc1N1CCNCC1 records Inh. (%) of Wee1 kinase enzyme activity of 90% or higher.
Result: label 1

Request: Test whether the compound CN(C)C1CCN(c2ccc(Nc3ncc4c(n3)N3CCN=C3N(c3c(F)cccc3Cl)C4=O)cc2Br)CC1 records Inh. (%) of Wee1 kinase enzyme activity of 90% or higher.
Result: label 1

Request: Test whether the compound CN1CCN(c2ccc(Nc3ncc4c(n3)N3CCN=C3N(c3ccc(Cl)cc3)C4=O)cc2)CC1 records Inh. (%) of Wee1 kinase enzyme activity of 90% or higher.
Result: label 0

Request: Test whether the compound Cc1cc(Nc2ncc3c(n2)N2CCN=C2N(c2c(Cl)cccc2Cl)C3=O)cc2c1C(C)(C)CN(C)C2 records Inh. (%) of Wee1 kinase enzyme activity of 90% or higher.
Result: label 1

Request: Test whether the compound CN1CCc2ccc(Nc3ncc4c(n3)N3CCN=C3N(c3c(F)cccc3Cl)C4=O)cc2C1 records Inh. (%) of Wee1 kinase enzyme activity of 90% or higher.
Result: label 1

Request: Test whether the compound CN1CCN(c2ccc(Nc3ncc4c(n3)N3CCN=C3N(C(C)(C)C)C4=O)cc2)CC1 records Inh. (%) of Wee1 kinase enzyme activity of 90% or higher.
Result: label 0

Request: Test whether the compound CN1CCN(c2ccc(Nc3ncc4c(n3)N3CCN=C3N(c3cccs3)C4=O)cc2)CC1 records Inh. (%) of Wee1 kinase enzyme activity of 90% or higher.
Result: label 0

Request: Test whether the compound O=C1c2cnc(Nc3ccc(N4CCNCC4)c(CO)c3)nc2N2CCN=C2N1c1c(F)cccc1Cl records Inh. (%) of Wee1 kinase enzyme activity of 90% or higher.
Result: label 1

Request: Test whether the compound Cc1cc(Nc2ncc3c(n2)N2CCN=C2N(c2c(F)cccc2Cl)C3=O)cc(Cl)c1N1CCN(C)CC1 records Inh. (%) of Wee1 kinase enzyme activity of 90% or higher.
Result: label 1

Request: Test whether the compound CN1CCN(c2ccc(Nc3ncc4c(n3)N3CCN=C3N(c3cccc(Cl)c3Cl)C4=O)cc2)CC1 records Inh. (%) of Wee1 kinase enzyme activity of 90% or higher.
Result: label 0

Request: Test whether the compound Cc1cc(Nc2ncc3c(n2)N2CCN=C2N(c2c(F)cccc2Cl)C3=O)ccc1N1CCC(N(C)C)CC1 records Inh. (%) of Wee1 kinase enzyme activity of 90% or higher.
Result: label 1

Request: Test whether the compound CN1CCN(c2cnc(Nc3ncc4c(n3)N3CCN=C3N(c3c(F)cccc3Cl)C4=O)cn2)CC1 records Inh. (%) of Wee1 kinase enzyme activity of 90% or higher.
Result: label 0

Entry source: patent US11345711B2
